- protocol_details: Cytotoxicity against mammalian cells (CCK-8)
- Format: cell-based
- test_conditions: human, 293T, CCK-8, n = 6, read-out: half maximal inhibitory concentration (IC50), cytotoxicity
Where no end group is shown, it is not given here.

>  <item_sequence>
KWKFFKKIRKVGKKIRKVIKKIGKAVGAAAQAAGQAANA [AMP_2]

>  <IC50 at 24 h>
> 40 µM

$$$$
